Test system: TK-10 renal
Experiment: NCI-60 one-dose screen, 48 h (100 = growth as untreated, 0 = no growth, -100 = all killed)
Conditions: 10 µM unless noted
The panel holds about 83,000 compounds, 20% with a hit somewhere; the sample as a whole holds those more often.
Consider the following molecules and their measured growth readings.

Molecule: Nc1c(C(=O)c2ccc(Br)cc2)oc2nc(-c3cnccn3)cc(-c3cccs3)c12
Unit: %
growth: 172
//
Molecule: Fc1ccc(-c2cc3nc(C(Cl)Cl)nc(-c4ccccc4)n3n2)cc1
Unit: %
growth: -23.9
//
Molecule: O=C(N/N=C/c1ccc[nH]1)c1[nH]c2ccc(Br)cc2c1-c1ccccc1
Unit: %
growth: 44.5
//
Molecule: Cc1cccc(/C=C/c2nn3c(-c4ccco4)nnc3s2)c1
Unit: %
growth: 101
//
Molecule: COc1ccc(-c2nc3ccc(-c4nnc(SCC(=O)Nc5ccc(C(=O)/C=C/c6ccc(Cl)cc6)cc5)o4)cc3[nH]2)cc1OC
Unit: %
growth: 134
//
Molecule: CCCC(=O)NC(c1cccnc1)c1cc(C)c2cccnc2c1O (centres undefined)
Unit: %
growth: 45.5
//
Molecule: O=C(N/N=C/c1ccc(Br)s1)c1[nH]c2ccc(Br)cc2c1-c1ccccc1
Unit: %
growth: 109
//
Molecule: Cc1ccc(/C=C/c2nn3c(-c4ccco4)nnc3s2)cc1C
Unit: %
growth: 116
//
Molecule: CS(=O)(=O)Nc1ccc(-c2nn(-c3ccc(S(C)(=O)=O)cc3)cc2/C=C/C(=O)c2ccc(NC(=O)CO[N+](=O)[O-])cc2)cc1
Unit: %
growth: 112
